Tested on: Wild type
Experiment: S. aureus survival, RN4220 and DeltatarO strains – OD600, teichoic acid synthesis inhibitors, primary screen (AID 463173)
Settings: S. aureus RN4220 wild type/DeltatarO growth, OD600, 18 h, stronger effect = lower value, screened at 18.75 µg/mL (by protocol)
Hit rate of the full screen: of about 52,000 compounds, about 1,700 (3.3%) were called active. Only a selection was taken, and actives are over-represented in it overall.
This section presents molecules with their documented survival values.

- molecule: "CCS(=O)(=O)Nc1ccc(-c2cn3c(C)csc3n2)cc1"
  survival: "78% (inactive)"
- molecule: "COc1ccc(C(=O)Nc2cccc(-c3cn4ccsc4n3)c2)cc1OC"
  survival: "76% (inactive)"
- molecule: "Cc1ccc(Cl)cc1N1CCN(C(=O)c2cc3ccc4cccnc4c3[nH]2)CC1"
  survival: "129% (inactive)"
- molecule: "CCOC(=O)Cc1ccc(NC(=O)N(C(C)C)C2CCN(C(C)=O)CC2)cc1"
  survival: "85% (inactive)"
- molecule: "CC(=O)Nc1ccc(NC(=O)C2CCN(c3c(NC(C)=O)c(C)nn3-c3ccccc3)CC2)cc1"
  survival: "63% (inactive)"
- molecule: "COc1cccc(OC)c1C(=O)Nc1cccc(-c2cn3ccsc3n2)c1"
  survival: "72% (inactive)"
- molecule: "CCS(=O)(=O)Nc1ccc(-c2cn3ccsc3n2)cc1"
  survival: "-1% (active)"
- molecule: "CCc1nnc(SCc2nc(-c3ccc(OC)cc3)oc2C)c2cc3sccc3n12"
  survival: "86% (inactive)"
- molecule: "COc1cc(OC)cc(C(=O)Nc2cccc(-c3cn4ccsc4n3)c2)c1"
  survival: "1% (active)"
- molecule: "O=C(NCc1nc2ccccc2n1Cc1ccccc1Cl)c1ccccc1"
  survival: "90% (inactive)"
- molecule: "COc1ccc(CNC(=O)C(=O)NCC(c2ccc3c(c2)OCO3)N2CCOCC2)cc1 (centres undefined)"
  survival: "80% (inactive)"
- molecule: "CCCS(=O)(=O)Nc1cccc(-c2cn3ccsc3n2)c1"
  survival: "159% (inactive)"
- molecule: "Fc1cccc(Cl)c1Cn1c(-c2cccs2)nc2ccccc21"
  survival: "26% (active)"
- molecule: "Cn1c(SCCN2CCCC2)nnc1-c1ccncc1"
  survival: "112% (inactive)"
- molecule: "COc1ccc(S(=O)(=O)Nc2ccc(-c3cn4ccsc4n3)cc2)cc1C"
  survival: "133% (inactive)"
- molecule: "Cc1ccccc1Cn1cnc2ccccc21"
  survival: "116% (inactive)"
- molecule: "CCc1ccc(NC(=O)CSc2nc3c([nH]c4ccccc43)c(=O)n2-c2ccc(C)cc2)cc1"
  survival: "159% (inactive)"
- molecule: "CC(=O)Nc1c(C)nn(-c2ccccc2)c1N1CCC(C(=O)NCc2ccc(Cl)cc2)CC1"
  survival: "81% (inactive)"
- molecule: "Clc1ccccc1Cn1c(-c2cccs2)nc2ccccc21"
  survival: "-3% (active)"

---

Tested on: Wild type
Assay: S. aureus survival, RN4220 and DeltatarO strains – OD600, teichoic acid synthesis inhibitors, primary screen (AID 463173)
Conditions: S. aureus RN4220 wild type/DeltatarO growth, OD600, 18 h, stronger effect = lower value, screened at 18.75 µg/mL (by protocol)
Out of some 52,000 compounds screened, about 1,700 (3.3%) were called active. The entries come from a sample that favours actives as a whole.

- chemical smiles: "Cc1cc(Br)ccc1NC(=O)CN1C(=O)c2cccnc2Sc2ccccc21"
  survival: "85% (inactive)"
- chemical smiles: "Cc1cc(-n2c(C)nc3ccccc3c2=O)ccc1NC(=O)C(F)(F)F"
  survival: "69% (inactive)"
- chemical smiles: "Cc1cc(C)c(Cn2c3ccccc3c3cnn(CC(=O)NC4CCCCCC4)c(=O)c32)c(C)c1"
  survival: "127% (inactive)"
- chemical smiles: "CCOc1ccc(C(=O)c2c(N)c(-c3nc(-c4ccc(OCC)cc4)cs3)c3ccccn23)cc1"
  survival: "103% (inactive)"
- chemical smiles: "COC(=O)c1c(NC(=O)Cc2coc3cc(C)ccc23)sc2c1CCC2"
  survival: "106% (inactive)"
- chemical smiles: "Cn1c(=O)c2c(-c3ccc(Cl)cc3)ccnc2n(C)c1=O"
  survival: "68% (inactive)"
- chemical smiles: "Cn1c(=O)n(C)c2cc(N3CCOCC3)c(NS(=O)(=O)c3ccc(Br)cc3)cc21"
  survival: "82% (inactive)"

---

Test system: Wild type
Assay: S. aureus survival, RN4220 and DeltatarO strains – OD600, teichoic acid synthesis inhibitors, primary screen (AID 463173)
Details: S. aureus RN4220 wild type/DeltatarO growth, OD600, 18 h, screened at 18.75 µg/mL (by protocol)
The whole screen tested about 52,000 compounds, of which about 1,700 (3.3%) were called active. Cut-off read from the data, not from the text of the source: active = survival mostly below about 52% (no sharp cut-off); inactive = mostly above about 56%. The list comes from a sample in which actives are over-represented; it also holds close analogues and randomly drawn compounds.
Classes used: TRUE (active), FALSE (inactive)

- compound: "COc1cccc(NC(=O)CCc2nc3c(C)nn(-c4ccc(C)cc4)c3n(C)c2=O)c1"
  discrete label: "FALSE"
- compound: "Cc1ccc(-c2nn3c(-c4ccc(C)cc4)nnc3c3ccccc23)cc1"
  discrete label: "TRUE"
- compound: "CCC(c1nnnn1C1CCCC1)N1CCN(Cc2ccccc2)CC1 (stereo unspecified)"
  discrete label: "FALSE"
- compound: "COc1ccc(OC)c(CNc2ncc(-c3ccc(Cl)cc3)n2C)c1"
  discrete label: "FALSE"
- compound: "CCOC(=O)c1c(C)[nH]c(CCC(=O)Nc2ccc(C)c(F)c2)c1C"
  discrete label: "FALSE"
- compound: "N#CC(C#N)=C(N)/C(C#N)=C\\c1ccc(-c2ccccc2)o1"
  discrete label: "FALSE"

---

System: Wild type
Assay: S. aureus survival, RN4220 and DeltatarO strains – OD600, teichoic acid synthesis inhibitors, primary screen (AID 463173)
Conditions: S. aureus RN4220 wild type/DeltatarO growth, OD600, 18 h, stronger effect = lower value, screened at 18.75 µg/mL (by protocol)
About 1,700 (3.3%) of roughly 52,000 compounds were called active. The sample holds actives, similar compounds and a random draw of the others, so the mix is not that of the screen.

- chemical smiles: "O=C(NCc1cccnc1)c1cn(C2CC2)c2cc(N3CCN(C(=O)c4cccc(Cl)c4)CC3)c(F)cc2c1=O"
  tested system: "Wild type"
  survival / %: 0
- chemical smiles: "CCCCN(C)CCCNC(=O)c1cc(-c2cccnc2)nc2ccccc12"
  tested system: "Wild type"
  survival / %: 77
- chemical smiles: "CCc1ccc(C(=O)c2cn(CC(=O)Nc3ccc4c(c3)OCO4)c3cc(OC)c(OC)cc3c2=O)cc1"
  tested system: "Wild type"
  survival / %: 107
- chemical smiles: "COCCCn1c(=N)c(C(=O)NCc2cccnc2)cc2c(=O)n3cccc(C)c3nc21"
  tested system: "Wild type"
  survival / %: 74
- chemical smiles: "CCN(CC)c1nc(-c2ccccc2)nc2ccccc12"
  tested system: "Wild type"
  survival / %: 108
- chemical smiles: "COc1ccc(C)cc1NC(=O)c1cc2c(s1)-c1ccccc1SC2"
  tested system: "Wild type"
  survival / %: 46
- chemical smiles: "Cc1ccc(C(=O)COC(=O)c2cc(-c3ccc(Cl)cc3)nc3ccccc23)cc1"
  tested system: "Wild type"
  survival / %: 117

---

Tested on: Wild type
Assay: S. aureus survival, RN4220 and DeltatarO strains – OD600, teichoic acid synthesis inhibitors, primary screen (AID 463173)
Details: S. aureus RN4220 wild type/DeltatarO growth, OD600, 18 h, stronger effect = lower value, screened at 18.75 µg/mL (by protocol)
Hit rate of the full screen: of about 52,000 compounds, about 1,700 (3.3%) were called active. Many of the other results were omitted from the sample, so actives are more common in it than they were.
test readout: survival (%)

- chemical smiles: "CC(=O)Nc1ccc(NS(=O)(=O)c2c(C(=O)N3CCC(C)CC3)c(C)n(C)c2C)cc1"
  test readout: "survival"
  measured number: -3
- chemical smiles: "O=C(c1cccc(F)c1)N1CCC(c2c[nH]c3ccccc23)(c2c[nH]c3ccccc23)CC1"
  test readout: "survival"
  measured number: 63
- chemical smiles: "CCN(Cc1ccccc1)C(=O)c1cc2c(s1)-c1c(C)cccc1OC2"
  test readout: "survival"
  measured number: 71
- chemical smiles: "CC(C)Nc1nc(NC(C)C)nc(N(C)C)n1"
  test readout: "survival"
  measured number: 115

---

Test system: Wild type
Test: S. aureus survival, RN4220 and DeltatarO strains – OD600, teichoic acid synthesis inhibitors, primary screen (AID 463173)
Settings: S. aureus RN4220 wild type/DeltatarO growth, OD600, 18 h, screened at 18.75 µg/mL (by protocol)
Hit rate of the full screen: of about 52,000 compounds, about 1,700 (3.3%) were called active. Rule as the data show it: active = survival mostly below about 52% (no sharp cut-off); inactive = mostly above about 56%. The entries come from a sample that favours actives as a whole.
Outcome codes: active, inactive

- compound: "COc1ccccc1NS(=O)(=O)c1cn(C)c(C)n1"
  discrete label: "active"
- compound: "COc1cccc(NC(=O)NCc2ccc3c(c2)CCN3C(=O)c2ccccc2)c1"
  discrete label: "inactive"
- compound: "Clc1cccc(N2CCN(c3nc4ccccc4n4cnnc34)CC2)c1"
  discrete label: "inactive"
- compound: "CCOC(=O)c1cnc2ccc(C(=O)OC)cc2c1Nc1ccc(N2CCOCC2)cc1"
  discrete label: "inactive"
- compound: "Brc1cccc(-c2nn(-c3ccccc3)c3c2cnc2cc4c(cc23)OCO4)c1"
  discrete label: "inactive"
- compound: "CCOC(=O)c1cnc2ccccc2c1Nc1ccc(N2CCOCC2)cc1"
  discrete label: "inactive"
- compound: "O=c1c2c([nH]n1-c1ccccc1)CCCC2"
  discrete label: "inactive"
- compound: "CCOC(=O)C1CCN(C(c2ccccc2OC)c2c(O)cc(C)n(CCOC)c2=O)CC1 (configuration not stated)"
  discrete label: "inactive"
- compound: "CC(C)(C)C(=O)Nc1ccc2nc(SCCOc3ccccc3Cl)sc2c1"
  discrete label: "inactive"
- compound: "O=C(CSc1ccccc1)N1CCc2c([nH]c3ccccc23)C1c1ccc(Cl)cc1 (configuration not stated)"
  discrete label: "inactive"
- compound: "CCCOC(=O)c1ccc(Nc2c(C(=O)OCC)cnc3c(C)cc(Cl)cc23)cc1"
  discrete label: "active"
- compound: "COc1ccc(NC(=O)C(Cc2ccccc2)n2cccc2)cc1OC (configuration not stated)"
  discrete label: "inactive"
- compound: "Cc1cccc(-c2nc(CCNC(=O)Cc3ccc(F)cc3)cs2)c1"
  discrete label: "active"
- compound: "COc1ccc(CCC(=O)NCCc2csc(-c3ccc(C(F)(F)F)cc3)n2)cc1"
  discrete label: "inactive"
- compound: "CC(=O)c1cccc(NC(=O)[C@H](Cc2ccccc2)N2Cc3ccccc3C2=O)c1"
  discrete label: "inactive"
- compound: "CN(C)c1ccc(C(CNS(=O)(=O)c2ccc(F)cc2)N2CCOCC2)cc1 (configuration not stated)"
  discrete label: "inactive"
- compound: "NC(=O)C1CCN(C(=O)CSc2nc(O)cc(=O)[nH]2)CC1"
  discrete label: "inactive"
- compound: "C=Cc1ccc(CN2C(=O)N(c3ccc(CC)cc3)S(=O)(=O)c3ccccc32)cc1"
  discrete label: "active"
- compound: "Cc1cccc(NC(=O)C(Cc2ccccc2)n2cccc2)c1C (configuration not stated)"
  discrete label: "inactive"
- compound: "CCc1cccc(NC(=O)c2nc(-c3ccncc3)no2)c1"
  discrete label: "inactive"
- compound: "Cc1ccccc1Nc1c(-c2cccc(Cl)c2)nc2ncccn12"
  discrete label: "inactive"
- compound: "C=Cc1ccc(CN2C(=O)N(c3ccc(C)c(C)c3)S(=O)(=O)c3ccccc32)cc1"
  discrete label: "inactive"
- compound: "CCOC(=O)c1cnc2c(Cl)cc(Cl)cc2c1Nc1cc(C(=O)O)ccc1C"
  discrete label: "inactive"
- compound: "CCOC(=O)c1cnc2ccc(C)cc2c1Nc1ccc(N(CC)CC)cc1"
  discrete label: "active"
- compound: "O=C(Nc1ccc2nc(SCCOc3ccccc3Cl)sc2c1)c1cccs1"
  discrete label: "inactive"
- compound: "Cc1ccc(NC(=O)C(Cc2ccccc2)n2cccc2)cc1C (configuration not stated)"
  discrete label: "active"
- compound: "Cc1ccc(C)c(NC(=O)C(Cc2ccccc2)n2cccc2)c1 (configuration not stated)"
  discrete label: "inactive"
- compound: "COc1cccc(C(=O)N2c3cc(C)ccc3C(C)(c3ccccc3)CC2(C)C)c1 (configuration not stated)"
  discrete label: "active"
- compound: "COc1cc(OC)c(NC(=O)c2c(C)oc3ncn(C)c(=O)c23)cc1Cl"
  discrete label: "inactive"
- compound: "Cc1cccc(-c2nc(CCNC(=O)c3ccc(Br)o3)cs2)c1"
  discrete label: "inactive"
- compound: "CC(=O)Nc1ccc2nc(SCCOc3ccccc3Cl)sc2c1"
  discrete label: "active"
- compound: "Cc1ccccc1NC(=O)c1c(NC(=O)C(C)Oc2cccc(Cl)c2)sc2c1CCCC2 (configuration not stated)"
  discrete label: "inactive"
- compound: "O=C(Cn1c(=O)n(CC2CCCO2)c(=O)c2ccccc21)Nc1cccc(Cl)c1 (configuration not stated)"
  discrete label: "inactive"
- compound: "O=C(Nc1ccccc1)C(Cc1ccccc1)N1Cc2ccccc2C1=O (configuration not stated)"
  discrete label: "inactive"
- compound: "CCc1ccc(NC(=O)C(CC)n2c(=O)c(C(F)(F)F)nc3ccccc32)cc1 (configuration not stated)"
  discrete label: "inactive"
- compound: "COc1cccc(C(=O)N2c3ccc(C)cc3C(C)(c3ccccc3)CC2(C)C)c1 (configuration not stated)"
  discrete label: "active"
- compound: "COc1ccc(OCC(=O)N2CCN(C(=O)c3cccc(OC)c3)CC2)cc1"
  discrete label: "inactive"
- compound: "COc1cccc(Cn2c(CNC(=O)C(C)C)nc3cccnc32)c1"
  discrete label: "inactive"
- compound: "Cc1ccc(NC(=O)C(=O)NCC(c2ccc3c(c2)OCO3)N2CCOCC2)cc1C (configuration not stated)"
  discrete label: "inactive"
- compound: "CN(C)c1ccc(C(CNS(=O)(=O)c2ccc(Cl)cc2)N2CCCC2)cc1 (configuration not stated)"
  discrete label: "active"
- compound: "COc1ccc(NCc2cc3cc4c(cc3n(CC(=O)Nc3cc(C)cc(C)c3)c2=O)OCO4)cc1"
  discrete label: "inactive"
- compound: "O=C(Cc1ccc(F)cc1)NCCc1csc(-c2cccc(F)c2)n1"
  discrete label: "inactive"

Reference for the values: PubChem BioAssay AID463173
